Kindly supply the reported Percent Effect values for the records listed here.
target: Tyrosyl-tRNA synthetase, putative (Trypanosoma cruzi (strain CL Brener)) (UniProt Q4DSP6); test: Trypanosoma cruzi tyrosyl tRNA synthetase (TcYRS) SOP; type: functional; design: scale not given: direction of the effect not stated beside the values; conditions: 30 µM
Sequence (Q4DSP6 as listed by the source): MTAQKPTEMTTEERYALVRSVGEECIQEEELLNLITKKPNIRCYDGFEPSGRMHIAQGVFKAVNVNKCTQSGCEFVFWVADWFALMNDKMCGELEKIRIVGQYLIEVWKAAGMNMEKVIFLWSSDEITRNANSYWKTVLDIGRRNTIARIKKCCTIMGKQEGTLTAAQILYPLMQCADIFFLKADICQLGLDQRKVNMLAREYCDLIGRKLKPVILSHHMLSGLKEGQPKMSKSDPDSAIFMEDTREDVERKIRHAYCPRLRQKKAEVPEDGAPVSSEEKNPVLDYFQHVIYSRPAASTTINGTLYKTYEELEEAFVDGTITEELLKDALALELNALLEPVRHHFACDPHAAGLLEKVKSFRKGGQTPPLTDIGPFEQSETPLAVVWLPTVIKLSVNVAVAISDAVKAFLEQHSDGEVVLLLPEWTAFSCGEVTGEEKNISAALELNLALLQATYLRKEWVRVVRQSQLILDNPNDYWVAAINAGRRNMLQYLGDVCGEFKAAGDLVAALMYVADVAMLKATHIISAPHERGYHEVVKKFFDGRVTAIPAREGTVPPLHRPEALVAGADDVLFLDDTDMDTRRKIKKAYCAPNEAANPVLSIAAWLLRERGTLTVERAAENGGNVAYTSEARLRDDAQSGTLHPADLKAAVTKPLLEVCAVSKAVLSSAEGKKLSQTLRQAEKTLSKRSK
Provide only the numeric value, understood in %.

Reported Percent Effect of `Cc1cccc(C(=O)N2C[C@@H](OCc3cccnc3)[C@H]3OCCC[C@@H]32)n1` : 7.69

Reported Percent Effect of CCS(=O)(=O)CC(=O)NC(c1ccc(F)cc1)C1CCCC1 (centres undefined) : 5.2

Reported Percent Effect of `Cc1cccc(CN2C[C@@H]3CN(C(=O)NC(C)C)C[C@@H]3C2=O)c1` : 13.6

Reported Percent Effect of `Cc1ccc(N2CCN(C(=O)COc3ccccc3)CC2)nn1` : 17.5

Reported Percent Effect of `COCc1noc(C2(c3ccc(Br)cc3)CCOCC2)n1` : 4.88

Reported Percent Effect of Nc1cc(CCC2CN(Cc3ccc(C(=O)O)cc3)CCO2)ccn1 (centres undefined) : 2.5

Reported Percent Effect of `CCc1cccc(N2CCC(NC(=O)c3ccc(=O)[nH]n3)CC2)c1` : 15.2

Reported Percent Effect of CC1CCCCN1C(=O)CN1CCN(c2ccc3nncn3n2)CC1 (centres undefined) : 13.2

Reported Percent Effect of `O=C(NCCn1ccc(-c2ccncc2)n1)c1ccncc1` : 2.5

Reported Percent Effect of `COC(=O)Cn1c(=O)nc2n1C(=O)N(c1ccccc1)C2` : 9.76

Reported Percent Effect of c1cc2nccc(CC3CCCN(Cc4ncc[nH]4)CC3)c2cn1 (centres undefined) : 24.7

Reported Percent Effect of O=C(NCc1nncn1-c1ccccc1)C1CC(=O)N(CC2CC2)C1 (centres undefined) : 3.7

Reported Percent Effect of O=C1NCC2(CCCN(Cc3ccc(Cl)s3)C2)Oc2ccccc21 (centres undefined) : 20

Reported Percent Effect of CC(C)CCC(=O)NC(C)c1nnc2n1CCCCC2 (centres undefined) : 7.06

Reported Percent Effect of `COc1cccc(COCC(=O)N2CCN(CC(C)(C)O)CC2)c1` : -2.44

Reported Percent Effect of Clc1snnc1CN1CCOC(CNc2cccnn2)C1 (centres undefined) : 12.2

Reported Percent Effect of `O=C(O)c1csc(S(=O)(=O)N2CCCc3ccc(F)cc32)c1` : -13.6

Reported Percent Effect of `Cc1ccc(OCC(=O)NS(=O)(=O)c2c(C)noc2C)cc1C` : -6.02

Reported Percent Effect of Cn1cccc1C(=O)N1CCCC2(CCN(CCN3CCCC3)C2=O)C1 (centres undefined) : -1.24

Reported Percent Effect of `O=C(c1cscn1)N1CCC2(CCN(Cc3nccs3)C2)CC1` : 5.13

Reported Percent Effect of `CC(=O)N1CCN(C(=O)c2cc(-n3cnnn3)ccc2Cl)CC1` : -2.6

Reported Percent Effect of `O=C(CCC1CCN(Cc2ncc[nH]2)CC1)Nc1ccccc1Cl` : 0

Reported Percent Effect of c1cnn(CC2CCCCN2Cc2cn3ccsc3n2)c1 (centres undefined) : 18.1

Reported Percent Effect of Cc1cnn(CC2CCCN2C(=O)c2cc3ccccc3[nH]2)c1 (centres undefined) : 11.8
